Below, each entry is listed alongside its reported inhibition at 0.5 µM.
- ASSAY SYSTEM: recombinant human CK2 (Homo sapiens, UniProt P68400)
- Construct: purchased Upstate
- Sequence (P68400 whole entry): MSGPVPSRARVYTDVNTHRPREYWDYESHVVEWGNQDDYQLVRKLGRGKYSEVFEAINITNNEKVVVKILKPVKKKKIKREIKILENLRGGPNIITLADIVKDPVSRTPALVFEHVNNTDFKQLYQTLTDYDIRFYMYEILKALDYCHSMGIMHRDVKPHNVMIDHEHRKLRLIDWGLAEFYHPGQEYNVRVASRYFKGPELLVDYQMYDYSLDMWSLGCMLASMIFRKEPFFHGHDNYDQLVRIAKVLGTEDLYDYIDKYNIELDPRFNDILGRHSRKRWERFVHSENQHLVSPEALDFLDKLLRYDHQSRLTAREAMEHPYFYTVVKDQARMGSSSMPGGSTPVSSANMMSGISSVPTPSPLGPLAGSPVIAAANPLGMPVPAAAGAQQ
- Sequence (P67870 whole entry partner): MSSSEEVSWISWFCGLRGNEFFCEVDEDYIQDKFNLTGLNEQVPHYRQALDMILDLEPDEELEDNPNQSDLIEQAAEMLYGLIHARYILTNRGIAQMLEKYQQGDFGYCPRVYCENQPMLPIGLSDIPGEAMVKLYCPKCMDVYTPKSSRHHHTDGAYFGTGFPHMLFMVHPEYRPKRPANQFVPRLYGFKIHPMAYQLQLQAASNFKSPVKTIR
- EXPERIMENTAL PROTOCOL: Cell-free CK2 assay
- Assay type: biochemical
- EXPERIMENTAL SETUP: read-out: CK2: % inh 500 nM
Give just the number in %; leave the unit off.

The compound identified as Cn1cc(-c2nc3cc(C(=O)O)ccc3c3cnccc23)cn1 registered its inhibition at 0.5 µM at 98

---

- System: MiaPaca human pancreatic carcinoma cells
- EXPERIMENTAL PROTOCOL: Cell proliferation assay (Alamar Blue), MiaPaCa
- Assay type: cell-based
- EXPERIMENTAL SETUP: MIA PaCa-2, MiaPaCa cell line
ASSAY ENDPOINT: pIC50
pIC50 here is simply -log10 of the concentration when that concentration is written in mol/L.

* NC(=O)c1ccc2c(c1)nc(-c1ccccc1)c1nc(NC3CC3)ncc12 | 5.28
* Cn1cc(-c2nc3cc(C(=O)O)ccc3c3cnc(NC4CC4)nc23)cn1 | 6.05

The molecule identified as COC(=O)c1ccc2c(c1)nc(-c1cnn(C)c1)c1nc(NC3CC3)ncc12 registered its pIC50 at 6.22

---

- System: MV-4-11
- EXPERIMENTAL PROTOCOL: Cell proliferation assay (Alamar Blue), MV-4-11
- Assay type: cell-based
- EXPERIMENTAL SETUP: Homo sapiens, MV4-11; MV-4-11 cell line
ASSAY ENDPOINT: IC50 (µM)
Give just the number in µM; leave the unit off.

Previously resolved entries follow.
• O=C(O)c1ccc2c(c1)nc(-c1ccc(F)cc1)c1ccncc12 = 7
• O=C(O)c1ccc2c(c1)nc(-c1ccsc1)c1ccncc12 = 13.3

Query NC(=O)c1ccc2c(c1)nc(-c1ccccc1)c1ccncc12 on MV-4-11; IC50 returned: 1.4

---

- System: MiaPaca human pancreatic carcinoma cells
- EXPERIMENTAL PROTOCOL: Cell proliferation assay (Alamar Blue), MiaPaCa
- Assay type: cell-based
- EXPERIMENTAL SETUP: MIA PaCa-2, MiaPaCa cell line
ASSAY ENDPOINT: IC50

Previously resolved entries follow.
- O=C(O)c1ccc2c(c1)nc(-c1ccccc1)c1ccncc12: > 10 µM
- O=C(O)c1ccc2c(c1)nc(-c1cccc(F)c1)c1ccncc12: > 10 µM
- COC(=O)c1ccc2c(c1)nc(-c1ccccc1)c1nc(NC3CC3)ncc12: 3.2 µM
- O=C(O)c1ccc2c(c1)nc(-c1ccsc1)c1ccncc12: > 10 µM

The compound identified as COC(=O)c1ccc2c(c1)nc(-c1cnn(C)c1)c1nc(SC)ncc12 registered its IC50 at > 62.5 µM

The compound identified as N#Cc1cccc(-c2nc3cc(C(=O)O)ccc3c3cnccc23)c1 registered its IC50 at > 10 µM

The compound identified as Cn1cc(-c2nc3cc(C(=O)NC4CC4)ccc3c3cnc(NC4CC4)nc23)cn1 registered its IC50 at 2.8 µM

The compound identified as O=C(O)c1ccc2c(c1)nc(-c1ccccc1F)c1ccncc12 registered its IC50 at > 10 µM

The compound identified as Nc1cccc(-c2nc3cc(C(=O)O)ccc3c3cnccc23)c1 registered its IC50 at > 10 µM

The compound identified as CN1CCN(C(=O)c2ccc3c(c2)nc(-c2cccc(N)c2)c2ccncc23)CC1 registered its IC50 at > 10 µM

The compound identified as O=C(NC1CC1)c1ccc2c(c1)nc(-c1ccccc1)c1nc(NC3CC3)ncc12 registered its IC50 at 58.4 µM

The compound identified as COc1cccc(F)c1-c1nc2cc(C(=O)O)ccc2c2cnccc12 registered its IC50 at > 10 µM

---

- ASSAY SYSTEM: recombinant human CK2 (Homo sapiens, UniProt P68400)
- EXPERIMENTAL PROTOCOL: Cell-free CK2 assay
yes if IC50 is below 40 nM. no if not; exact matches included in no.

# example entries with known answers
* O=C(O)c1ccc2c(c1)nc(-c1ccccc1)c1ccncc12 | yes
* O=C(O)c1ccc2c(c1)nc(-c1ccc(Cl)cc1)c1ccncc12 | yes
* Nc1cccc(-c2nc3cc(C(=O)O)ccc3c3cnccc23)c1 | yes
* O=C(O)c1ccc2c(c1)nc(-c1ccccc1)c1nc(NC3CC3)ncc12 | no
* O=C(O)c1ccc2c(c1)nc(-c1ccccc1F)c1ccncc12 | no

Next molecule, please.
Problem: Decide: IC50 of N#Cc1cccc(-c2nc3cc(C(=O)O)ccc3c3cnccc23)c1 strictly below 40 nM?
Result: no

---

- ASSAY SYSTEM: recombinant human CK2 (Homo sapiens, UniProt P68400)
- Construct: purchased Upstate
- EXPERIMENTAL PROTOCOL: Cell-free CK2 assay
- Format: biochemical
- EXPERIMENTAL SETUP: read-out: CK2: % inh 500 nM
Below, each entry is listed alongside its reported inhibition at 0.5 µM.
Give just the number in %; leave the unit off.

- O=C(NC1CC1)c1ccc2c(c1)nc(-c1ccccc1)c1nc(NC3CC3)ncc12: -4
- NC(=O)c1ccc2c(c1)nc(-c1ccccc1)c1nc(NC3CC3)ncc12: 45
- Cc1cnc(CNC(=O)c2ccc3c(c2)nc(-c2cccc(N)c2)c2ccncc23)cn1: -24
- CC(=O)Nc1cccc(-c2nc3cc(C(=O)NN4CCOCC4)ccc3c3cnccc23)c1: 19
- COC(=O)c1ccc2c(c1)nc(-c1c(C)noc1C)c1ccncc12: -5

The compound identified as Cc1cscc1-c1nc2cc(C(=O)O)ccc2c2cnccc12 registered its inhibition at 0.5 µM at 87

The compound identified as Nc1cccc(-c2nc3cc(C(=O)O)ccc3c3cnccc23)c1 registered its inhibition at 0.5 µM at 97

The compound identified as Fc1ccc2c(c1)nc(-c1ccncc1)c1ccncc12 registered its inhibition at 0.5 µM at -37

The compound identified as Fc1ccc2c(c1)nc(-c1ccccc1)c1ccncc12 registered its inhibition at 0.5 µM at -51

The compound identified as O=C(O)c1ccc2c(c1)nc(-c1cccc(Cl)c1)c1ccncc12 registered its inhibition at 0.5 µM at 95

The compound identified as Nc1cccc(-c2nc3cc(C(=O)NCCN4CCCC4)ccc3c3cnccc23)c1 registered its inhibition at 0.5 µM at 56

The compound identified as COC(=O)c1ccc2c(c1)nc(-c1ccccc1)c1nc(SC)ncc12 registered its inhibition at 0.5 µM at -26

The compound identified as O=C(O)c1ccc2c(c1)nc(-c1ccccc1)c1ccncc12 registered its inhibition at 0.5 µM at 97

The compound identified as Cc1ccccc1-c1nc2cc(C(=O)O)ccc2c2cnccc12 registered its inhibition at 0.5 µM at 76

The compound identified as CC(=O)Nc1cccc(-c2nc3cc(C(=O)NCC4CCCCN4C)ccc3c3cnccc23)c1 (stereo not shown) registered its inhibition at 0.5 µM at 40

The compound identified as COC(=O)c1ccc2c(c1)nc(-c1ccccc1)c1nc(S(C)(=O)=O)ncc12 registered its inhibition at 0.5 µM at -18

The compound identified as COC(=O)c1ccc2c(c1)nc(-c1ccccc1)c1nc(NC3CC3)ncc12 registered its inhibition at 0.5 µM at -27

The compound identified as Nc1cccc(-c2nc3cc(C(=O)NN4CCOCC4)ccc3c3cnccc23)c1 registered its inhibition at 0.5 µM at -28

The compound identified as CC(=O)Nc1cccc(-c2nc3cc(C(=O)N4CCCN(C)CC4)ccc3c3cnccc23)c1 registered its inhibition at 0.5 µM at 30

---

- System: MDA-MB231
- EXPERIMENTAL PROTOCOL: Cell proliferation assay (Alamar Blue), MDA-MB231
- Assay type: cell-based
- EXPERIMENTAL SETUP: Homo sapiens, MDA-MB-231; MDA-MB231 cell line
pIC50: −log10 of the molar value.
ASSAY ENDPOINT: pIC50

Previously resolved entries follow.
* NC(=O)c1ccc2c(c1)nc(-c1ccccc1)c1nc(NC3CC3)ncc12 | 4.45
* O=C(O)c1ccc2c(c1)nc(-c1ccc(Cl)cc1)c1ccncc12 | < 5.00
* O=C(O)c1ccc2c(c1)nc(-c1cccc(Cl)c1)c1ccncc12 | < 5.00
* CC(=O)Nc1cccc(-c2nc3cc(C(=O)O)ccc3c3cnccc23)c1 | < 5.00
* COC(=O)c1ccc2c(c1)nc(-c1ccccc1)c1nc(NC3CC3)ncc12 | 5.47

The compound identified as COC(=O)c1ccc2c(c1)nc(-c1cnn(C)c1)c1nc(NC3CC3)ncc12 registered its pIC50 at 4.76

The compound identified as O=C(NC1CC1)c1ccc2c(c1)nc(-c1ccccc1)c1nc(NC3CC3)ncc12 registered its pIC50 at < 4.20

The compound identified as COC(=O)c1ccc2c(c1)nc(-c1cnn(C)c1)c1nc(SC)ncc12 registered its pIC50 at < 4.20

The compound identified as O=C(O)c1ccc2c(c1)nc(-c1ccccc1)c1ccncc12 registered its pIC50 at < 5.00

The compound identified as O=C(O)c1ccc2c(c1)nc(-c1ccccc1)c1nc(NC3CC3)ncc12 registered its pIC50 at 4.95

Where these numbers come from: patent US7910600B2
